Numbers sourced from ChEMBL document CHEMBL3112459.

Target: Integrin alpha-4/beta-1 (Homo sapiens, UniProt P05556+P13612)
Sequence (P05556 whole entry): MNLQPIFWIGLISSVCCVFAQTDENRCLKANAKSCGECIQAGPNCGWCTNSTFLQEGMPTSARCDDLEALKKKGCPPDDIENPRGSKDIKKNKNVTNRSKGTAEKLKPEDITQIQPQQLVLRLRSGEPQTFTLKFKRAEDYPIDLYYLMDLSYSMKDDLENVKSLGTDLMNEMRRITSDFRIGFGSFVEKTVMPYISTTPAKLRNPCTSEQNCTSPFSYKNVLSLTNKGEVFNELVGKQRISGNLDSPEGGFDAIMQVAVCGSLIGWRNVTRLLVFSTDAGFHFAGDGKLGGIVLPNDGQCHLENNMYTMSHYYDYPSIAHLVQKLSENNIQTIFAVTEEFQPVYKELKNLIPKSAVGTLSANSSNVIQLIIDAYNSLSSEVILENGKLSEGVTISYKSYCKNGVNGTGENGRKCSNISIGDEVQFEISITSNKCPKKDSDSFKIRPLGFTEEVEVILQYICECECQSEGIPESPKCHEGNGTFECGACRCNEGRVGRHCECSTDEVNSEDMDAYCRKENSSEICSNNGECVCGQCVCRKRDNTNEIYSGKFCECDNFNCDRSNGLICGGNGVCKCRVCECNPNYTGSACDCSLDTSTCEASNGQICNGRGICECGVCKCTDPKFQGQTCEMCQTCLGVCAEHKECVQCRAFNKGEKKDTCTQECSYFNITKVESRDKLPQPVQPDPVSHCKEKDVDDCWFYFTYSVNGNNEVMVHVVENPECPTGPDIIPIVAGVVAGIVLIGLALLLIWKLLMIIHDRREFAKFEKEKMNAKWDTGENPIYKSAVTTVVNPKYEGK
Sequence (P13612 whole entry): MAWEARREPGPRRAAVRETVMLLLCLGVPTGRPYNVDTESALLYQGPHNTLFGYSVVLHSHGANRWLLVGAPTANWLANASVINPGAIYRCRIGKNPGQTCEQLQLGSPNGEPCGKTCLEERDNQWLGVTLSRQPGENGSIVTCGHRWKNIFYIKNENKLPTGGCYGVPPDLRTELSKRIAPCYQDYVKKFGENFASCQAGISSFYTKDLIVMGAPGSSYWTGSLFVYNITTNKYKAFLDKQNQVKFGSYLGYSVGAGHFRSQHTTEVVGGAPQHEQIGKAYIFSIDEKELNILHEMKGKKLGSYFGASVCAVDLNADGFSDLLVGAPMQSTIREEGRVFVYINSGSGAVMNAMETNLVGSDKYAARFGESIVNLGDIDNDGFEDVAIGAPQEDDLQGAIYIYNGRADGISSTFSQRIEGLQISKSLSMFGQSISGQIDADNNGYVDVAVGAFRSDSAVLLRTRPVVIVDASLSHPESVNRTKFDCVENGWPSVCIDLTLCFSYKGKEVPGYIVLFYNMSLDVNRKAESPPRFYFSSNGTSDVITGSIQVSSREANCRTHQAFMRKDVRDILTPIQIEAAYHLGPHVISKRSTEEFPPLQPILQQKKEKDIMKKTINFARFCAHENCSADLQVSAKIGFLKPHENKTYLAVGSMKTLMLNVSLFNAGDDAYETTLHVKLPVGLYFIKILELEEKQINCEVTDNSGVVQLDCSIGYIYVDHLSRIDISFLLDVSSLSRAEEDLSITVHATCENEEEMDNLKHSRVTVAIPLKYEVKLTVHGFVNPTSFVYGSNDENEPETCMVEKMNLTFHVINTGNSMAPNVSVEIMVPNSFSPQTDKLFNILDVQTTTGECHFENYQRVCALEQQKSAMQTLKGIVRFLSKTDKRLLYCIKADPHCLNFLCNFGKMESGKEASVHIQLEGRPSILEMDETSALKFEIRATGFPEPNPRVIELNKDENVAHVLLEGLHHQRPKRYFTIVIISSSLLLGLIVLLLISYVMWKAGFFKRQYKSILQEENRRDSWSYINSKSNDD
Assay: Displacement of [125I]-FN from human alpha4beta1 integrin expressed in human Jurkat cells by scintillation proximity assay
// Ki lookup, one value per entry
Write the value in nM as a bare number.

smiles-structure | Ki [nM]
Cc1ccccc1NC(=O)Nc1ccc(CNC(=O)[C@H]2CCN(C(=O)[C@H](CC(=O)O)NC(=O)c3c(Cl)cccc3Cl)C2)cc1 | 2400
Cc1ccccc1NC(=O)Nc1ccc(CNC(=O)[C@H]2CCN(C(=O)C[C@H](NC(=O)Cc3ccccc3)C(=O)O)C2)cc1 | 180

Next, consider the following molecule.
GET /values?readout=Ki&system=Integrin alpha-4/beta-1 (Homo sapiens, UniProt P05556+P13612)&item= Cc1ccccc1NC(=O)Nc1ccc(CNC(=O)[C@H]2CCN(C(=O)[C@H](CC(=O)O)NC(=O)Cc3ccccc3)C2)cc1
60
